Values compiled from PubChem BioAssay AID588807.

Tested on: Kiaa1363
experiment-description: competitive ABPP of Abhd10 versus anti-targets – biochemical, fluorescence, gel-based, mouse proteome, selectivity assay for PME-1 inhibitor project, late-stage follow-up (AID 588807)
condition-notes: anti-target, at 10 µM, hits give high values
measured-endpoint: inhibition (%)

Solved cases (8 shown):
1. Cc1cccc([C@]2(C)C(=O)N(C(=O)OC(C)C)N2C(=O)OC(C)C)c1 0
2. CC[C@@]1(c2ccc(OC)cc2)C(=O)N(C(=O)OC(C)C)N1C(=O)OC(C)C 40
3. C=CCOC(=O)N1N(C(=O)OC)C(=O)[C@@]1(CC)c1cccc(C)c1 25
4. CC[C@@]1(c2cccc(F)c2)C(=O)N(C(=O)OC)N1C(=O)OC 0
5. CC[C@@]1(c2ccccc2)C(=O)N(C(=O)OC(C)C)N1C(=O)OC(C)C 0
6. CC[C@@]1(c2ccccc2C)C(=O)N(C(=O)OC)N1C(=O)OC 25
7. CCOC(=O)N1C(=O)[C@@](CC)(c2ccccc2)N1C(=O)OCC 0
8. CCCOC(=O)N1C(=O)[C@@](CC)(c2ccc(C)cc2)N1C(=O)OCCC 25

[1] C=CCOC(=O)N1C(=O)[C@@](CC)(c2ccccc2)N1C(=O)OCC=C
[2] CC[C@]1(c2cccc(C)c2)C(=O)N(C(=O)OC(C)C)N1C(=O)OC(C)C
Prompt line: Pick one, 1 or 2 : lowest reported inhibition. # reply format: chosen label
Response line: 2
(2: 0%, 1: 35%)
